# Tested on: UACC-257 melanoma
# assay.procedure: NCI-60 one-dose screen, 48 h
# condition.context: 10 µM unless noted
This is part of a sample that, as a whole, favours compounds with a hit. Of some 83,000 tested, about 20% had one in any assay. Active and inactive are the calls of the source. The calls were made as follows: active = growth percent below 10; inactive = the rest.
Respond only with the outcome that fits, drawn from active, inactive

Consider the following illustrative entries.
CC(C)C1=C[C@@]23CC[C@@H]4[C@](C)(CCC[C@@]4(C)C(=O)OCC#CCN4CCCC4)[C@H]2C[C@@H]1[C@H]1C(=O)OC(=O)[C@H]13 | inactive
CC(C)(C)n1cc(-c2ccnc(NCCCNS(=O)(=O)c3cccc4ccccc34)c2)c(-c2cccc(O)c2)n1 | active
COc1ccc2nc(NC(=O)c3cccnc3Nc3cc(OC)c(OC)c(OC)c3)sc2c1 | inactive

Query compound follows.
What outcome does the record of this test show for CCN(CC)CCCC(C)Nc1ccnc2c(OC)cccc12 (centres undefined) ? inactive

###

# Tested on: CAKI-1 renal
# assay.procedure: NCI-60 one-dose screen, 48 h (100 = growth as untreated, 0 = no growth, -100 = all killed)
# condition.context: 10 µM unless noted
About 83,000 compounds went through this panel and 20% of them were active in at least one assay; those are over-represented in the sample as a whole.
Catalogue of growth readings, one per entry.
Entry rule: numbers only, all in %.

# annotated cases, reported growth shown
CCN(CC)CC(C)(C)C(=O)/C=C/c1ccccc1 | 49.7
CCOC(=O)C(Cc1cc(I)c(O)c(I)c1)NC(=O)c1ccccc1 (stereo not given) | 95.7
CCCCCCCCCCCCCC(=O)C(C)N (stereo not given) | 77.6
O=c1c2cccc3c(Nc4c(F)cccc4F)ccc(c32)c2nc3ccccc3n12 | 62
CN1CCN(Cc2ccc(NC(=O)c3[nH]ncc3Nc3ncnc4c3CCC4)cc2)CC1 | 9.41

Endpoint output: growth of `CN1CCN(Cc2ccc(NC(=O)c3cncc(C#Cc4c(N)ncc5ccc(C#N)cc45)c3)cc2C(F)(F)F)CC1` . Value? 58.3

Need growth of `O=C(CN1CCN(c2cc3c(cc2F)c(=O)c(C(=O)O)cn3C2CC2)CC1)Nc1nc(-c2ccc(Cl)cc2)cs1` , thanks. 30.4

Could you share which growth value was measured for `O=S(=O)(NCCCNc1cc(-c2cn(-c3ccccc3)nc2-c2ccccc2)ccn1)c1ccc(C(F)(F)F)cc1` ? 52.4

What growth value was documented for this compound, `CC/C=C\C[C@H](O)C/C=C1/C(=O)C=C[C@@H]1C/C=C\CCCC(=O)NC(C)C` ? -0.696

Bench note: what growth did `CNC(=S)N/N=C/CSC/C=N/NC(=S)NC` show? 98.7

###

# Tested on: SF-295 CNS
# assay.procedure: NCI-60 one-dose screen, 48 h
# condition.context: 10 µM unless noted
# Procedure: Cells are grown in 96 well plates and exposed to the test compound for 48 hours. Compounds are tested at a single concentration, which is 10^-5 M for most compounds. The reported endpoint is percent growth (GI% or GIPRCNT), where numbers from 0 - 100% represent growth inhibition, and numbers from -100% - 0 represent cell death. For example, a value of 40 represents 60% growth inhibition. A value of 0 means no net growth occurred over the course of the experiment. […]
This is part of a sample that, as a whole, favours compounds with a hit. Of some 83,000 tested, about 20% had one in any assay. Calls of active or inactive are those of the source. How the source made its calls: active means growth percent below 10; inactive means the rest.
Could you please pick one outcome from this set? active, inactive

Consider the worked cases shown below.
O=C1C(Cl)=C(Cl)C(=O)c2c1nc1n2CCCC1 | inactive
O=C1NC(=O)C(CC(=O)n2c(-c3ccccc3)nc3ccccc32)C(=O)N1 | inactive
Cc1cc2cc3cc(C)c(N(C)C)cc3nc2cc1N(C)C | inactive
O=C1CC(c2nc3ccccc3s2)CN1C1CCCCC1 (stereo not drawn) | inactive
O=C(O)c1cccnc1Br | inactive

Would you mind telling me which call this test gave `Cc1ccc2c(c1)C(=O)/C(=C/c1ccc(OCC(=O)c3ccccc3)cc1)O2` ? inactive

Entry `CN1CCN(Cc2ccc(NC(=O)c3cncc(C#Cc4c(N)ncc5ccc(C#N)cc45)c3)cc2C(F)(F)F)CC1` : call = ? inactive

Write down the call the test reported for this compound. Item: `O=[N+]([O-])c1c(F)cccc1Nc1cccc(F)c1` inactive

Identify the outcome logged in this assay for the compound shown: `C#Cc1nc2ccccc2c(=O)[nH]1` inactive

State the result this test recorded for `O=C1/C(=C\c2cn(C(=O)c3ccc(Cl)cc3)c3ccccc23)c2ccccc2N1c1c(Cl)cccc1Cl` . inactive

Which outcome was assigned to CCCCN(CCCC)CCC(C)(O)c1cc2ccccc2c2ccccc12 (stereo not drawn) in this test? inactive

GET /call?item= `O=S(=O)(Nc1ccc(F)c(Cl)c1)c1ccc(-c2cnc(C3CC3)o2)cc1` returns the recorded outcome of this test. active

Status in this test for `CCOc1ccc(Nc2nc(-c3c(C)nc4ncccn34)cs2)cc1` ? inactive

Look up the recorded call for `O=C(Nc1ccc(F)cc1)Nc1ccc(CCO)cc1` in this test. inactive

###

# System: A498 renal
# assay.procedure: NCI-60 one-dose screen, 48 h (100 = growth as untreated, 0 = no growth, -100 = all killed)
# condition.context: 10 µM unless noted
The panel holds about 83,000 compounds, 20% with a hit somewhere; the sample as a whole holds those more often. The source made the active and inactive calls. Rule for the calls: active = growth percent below 10; inactive = the rest.
quantity.measured: growth

Example results:
O=C(NC(Cc1ccccc1)C(=O)CCl)OCc1ccccc1 (stereo not given) | 98.7% (inactive)
COc1cc(NC(N)=NCC(C)(C)COc2ccc(C(F)(F)F)cc2)cnc1C#N | 45.9% (inactive)
O=C1/C(=C/c2ccc(Cl)cc2Cl)CN(S(=O)(=O)c2ccccc2)C/C1=C\c1ccc(Cl)cc1Cl | 76.4% (inactive)
CNC(=O)c1cc(Oc2ccc3nc(NC(=O)Nc4ccc(N5CCC(N(C)C)CC5)cc4)sc3c2)ccn1 | 81.6% (inactive)
Cc1nc2nc(N)nc(N)c2nc1C | 100% (inactive)

Would you kindly share the measured growth for `CCCCCCCCSC1=CC(=O)C(OC)=C(OC)C1=O` ? 65.5% (inactive)

What value of measured growth is listed for `COCCCN=C(N)c1ccc(NC(=O)c2ccc(C(=O)Nc3ccc(C(N)=NCCCOC)cc3)cc2)cc1` ? 208% (inactive)

Please give the measured growth for this compound: CCN(CC)CCCC(C)Nc1ccnc2c(OC)cccc12 (stereo not given) 135% (inactive)

// growth lookup, key: `CN(C)c1ccc(/C=C(\C#N)c2nc3ccccc3s2)cc1` 112% (inactive)

Requested field: growth. Item: `COc1c(Cl)cc(Cl)cc1Cl` 96.5% (inactive)

growth lookup needed for `O=c1c2cccc3c(Nc4c(F)cccc4F)ccc(c32)c2nc3ccccc3n12` , thanks. 109% (inactive)

Look up growth for this compound: `C[C@]12C[C@@H](c3ccoc3)OC(=O)[C@@H]1CC[C@]1(C)[C@@H]2CC[C@@H](O)[C@]1(C)O` 19.8% (inactive)

Quick one: growth of C=C1CCC2C3(C)COC(c4cccc(Cl)c4)OC3CCC2(C)C1/C=C/C1=CCOC1=O (stereo not given) ? 64.5% (inactive)

Reported growth, compound `O=[N+]([O-])c1cccc(-c2nc3sccn3c2-c2ccnc(NCCNS(=O)(=O)c3ccc(C(F)(F)F)cc3)n2)c1` : ____ 36.6% (inactive)

###

# System: HT29 colon
# assay.procedure: NCI-60 one-dose screen, 48 h (100 = growth as untreated, 0 = no growth, -100 = all killed)
# condition.context: 10 µM unless noted
# Description: Growth inhibition of the HT29 human tumor cell line is measured as a screen for anti-cancer activity. Cells are grown in 96 well plates and exposed to the test compound for 48 hours. Compounds are tested at a single concentration, which is 10^-5 M for most compounds. The reported endpoint is percent growth (GI% or GIPRCNT), where numbers from 0 - 100% represent growth inhibition, and numbers from -100% - 0 represent cell death. For example, a value of 40 represents 60% growth inhibition. […]
The panel holds about 83,000 compounds, 20% with a hit somewhere; the sample as a whole holds those more often.
Label key: met means growth under 50%; not met means growth of 50% or more.

Check out these entries, answers already filled in.
CCCCCC(=O)N(CCCC)CCCC | not met
O=C(COCc1c(-c2ccccc2)no[n+]1[O-])Nc1ccc(C(=O)/C=C/c2ccc3c(c2)OCO3)cc1 | not met
COC(/C=C/c1ccc([N+](=O)[O-])cc1)OC | not met
CS(=O)(=O)c1c(Nc2ccccc2)n[nH]c1N | not met
COc1ccc(-c2cn3c(-c4ccc(OC)cc4)cnc3c(Oc3ccc4c(C)cc(=O)oc4c3)n2)cc1 | met

Report whether reported growth is lower than 50% (strictly) for `N#Cc1c(N)nc(N)nc1Nc1ccc(Br)cc1` not met

Just wondering, is growth of `COc1ccc(S(=O)(=O)NCCNc2nccc(-c3c(-c4cccc([N+](=O)[O-])c4)nc4sccn34)n2)cc1` below 50%? not met

Report whether reported growth is lower than 50% (strictly) for CCCCCCCCCCCCCCCCCCNC(=O)[C@H]1CSC(c2ccc(OC)c(F)c2)N1 (stereo not given in full) met

Confirm or reject: growth of `COc1ccc(/C=C2\CN(C(=O)CCN3CCC(=NO)CC3)C/C(=C\c3ccc(OC)cc3)C2=O)cc1` lies strictly below 50% met
